Protocol: yeast display, Sf9 membrane polyspecificity reagent, FACS + sequencing; frameworks hold sequencing errors
Measurement type: polyreactivity (PSR sort gate)

Below: 4 sequences and their reported polyreactivity (PSR sort gate).
Seq string	polyreactivity (PSR sort gate)
QDQLVESGGGLVQAGGSLRLSRAASGLIFYSYAMGWYRQAPGKERELVAAISSGGGRTYYADSVKGRFTISRDNAKNTVDLQMNSLKPEDTAVYYCAAYGSAAQKYPYDRPYRYGYWGQGTQVTVSS	high polyreactivity
QVQLVESGGGLVQAGGSLRLSCAASGFTFSAYAMGWYRQAPGKERELVAAIRSSDITYYADSVKGRFTISRDNAKNTVYLQMNSLKPEDTAVYYCAADLGDYYLYYDYEYWGQGTQVTVSS	high polyreactivity
QVQLVESGGGLVQAGGSLRLSCAASGRTFSYYAMGWYRQAPGKERELVAAISSGGSTNYADSVKGRFTISRDNAKNTVYLQMNSLKPEDTAVYYCATSSICGSGRVRWVTYYYWGQGTQVTVSS	low polyreactivity
QVQLVESGGGLVQAGGSLRLSCAASGFIFGGNAMGWYRQAPGKERELVAAISSGGRTYYADSVKGRFTISRDNAKNTVYLQMNSLKPEDTAVYYCNAAEQKYSIYYAFDTGPYDYWGQGTQVTVSS	low polyreactivity

Give a short answer stating reported polyreactivity (PSR sort gate) for "QVQLVESGGGLVEAGGSLRLSCAASGSTFRRYAMGWYRQAPVKERELVAAISTRGGSTYYADSVKGRFTISRDNAKNTVYLQMNSLKPEDTEVYYCAADPYYTLGYYYWGQGTQVTVSS" .
high polyreactivity
